target: HLA class I molecule A02.01; experiment: competition with radiolabeled reference peptide on purified MHC I; details: remark: other sources report otherwise
MEASUREMENT_LABEL: IC50 (nM)

binder=YVMAYVMAGV result_number=57
binder=VLHECNSLYI result_number=10
binder=YVMAYVMAG result_number=11500
